For each entry below, report its PBM binding z-score value.
# Tested on: PPARg DBDmut:RXRa IVT, anti-PPARg (DBD mutation: PPARg1 K132A/R137A, NR concentration 270 nM, RXRa partner concentration 90 nM)
# Test description: PBM binding z-score (relative to random genomic background probes); higher = stronger binding; sequences stand for … in GC…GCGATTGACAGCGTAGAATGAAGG
Hey, just send me the number, nothing else.

Prompt line: Recall and state the measured PBM binding z-score for `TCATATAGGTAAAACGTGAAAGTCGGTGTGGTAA` .
Response line: 0.79

Prompt line: Answer with the recorded PBM binding z-score for the sequence listed here: `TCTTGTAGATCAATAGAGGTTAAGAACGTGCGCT`
Response line: 0.658

Prompt line: Supply measured PBM binding z-score of `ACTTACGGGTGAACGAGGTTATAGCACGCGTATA` in your reply.
Response line: 0.498

Prompt line: Specify measured PBM binding z-score for `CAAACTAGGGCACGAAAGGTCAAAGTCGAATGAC` .
Response line: 2.22

Prompt line: Quickly give me recorded PBM binding z-score for `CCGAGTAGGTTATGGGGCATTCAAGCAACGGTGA`
Response line: -0.98

Prompt line: # return recorded PBM binding z-score for entry `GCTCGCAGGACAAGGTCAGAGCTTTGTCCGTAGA`
Response line: -1.69

Prompt line: Provide only the value of recorded PBM binding z-score for `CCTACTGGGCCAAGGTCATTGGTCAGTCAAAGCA`
Response line: -0.325

Prompt line: Identify the reported PBM binding z-score for the following entry. `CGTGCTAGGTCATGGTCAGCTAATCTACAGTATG`
Response line: 0.168

Prompt line: Identify PBM binding z-score associated with the sequence `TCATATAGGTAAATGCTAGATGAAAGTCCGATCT`
Response line: 0.931

Prompt line: Please list PBM binding z-score recorded for the sequence `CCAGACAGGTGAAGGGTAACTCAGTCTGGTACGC`
Response line: -0.966

Prompt line: Identify measured PBM binding z-score corresponding to `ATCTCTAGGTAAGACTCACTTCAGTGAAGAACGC`
Response line: 0.772

Prompt line: Read the entry `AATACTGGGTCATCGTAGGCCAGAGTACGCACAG` and write its reported PBM binding z-score.
Response line: 1.65

Prompt line: Read off the recorded PBM binding z-score for `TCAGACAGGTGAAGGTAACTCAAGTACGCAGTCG`
Response line: 0.154

Prompt line: Name the recorded PBM binding z-score of the item `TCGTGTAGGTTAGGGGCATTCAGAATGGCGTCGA` in your answer.
Response line: 0.425

Prompt line: Write down PBM binding z-score measured for item `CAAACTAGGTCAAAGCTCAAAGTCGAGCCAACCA`
Response line: 5.63

Prompt line: Indicate its recorded PBM binding z-score; the sequence in question is `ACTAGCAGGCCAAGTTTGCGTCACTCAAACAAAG`
Response line: 0.102

Prompt line: # return recorded PBM binding z-score for entry `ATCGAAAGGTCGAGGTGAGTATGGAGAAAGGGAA`
Response line: 0.568

Prompt line: Note PBM binding z-score for the sequence shown: `GCTAGTTGGTCAGTAAAAGTTCACACACCGGTCG`
Response line: -0.358

Prompt line: Using known records, supply PBM binding z-score for `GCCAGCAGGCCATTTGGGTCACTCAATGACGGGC`
Response line: -0.593

Prompt line: Give the measured PBM binding z-score for `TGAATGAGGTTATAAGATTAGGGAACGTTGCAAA`
Response line: 0.868

Prompt line: Could you please provide reported PBM binding z-score for `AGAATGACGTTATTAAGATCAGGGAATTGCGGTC` ? Thanks!
Response line: 0.0629

Prompt line: Query PBM binding z-score for `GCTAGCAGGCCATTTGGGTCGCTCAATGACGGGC`
Response line: -1.18

Prompt line: For the sequence `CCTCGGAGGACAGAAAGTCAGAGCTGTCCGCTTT` , report PBM binding z-score.
Response line: -1.75

Prompt line: Specify PBM binding z-score for `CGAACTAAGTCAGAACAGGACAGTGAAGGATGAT` and stop.
Response line: 0.659

Prompt line: Read the entry `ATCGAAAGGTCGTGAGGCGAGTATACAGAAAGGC` and write its reported PBM binding z-score.
Response line: 1.82

Prompt line: Specify measured PBM binding z-score for `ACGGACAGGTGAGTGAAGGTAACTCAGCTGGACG` .
Response line: -0.111

Prompt line: Identify PBM binding z-score associated with the sequence `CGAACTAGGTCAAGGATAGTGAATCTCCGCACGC`
Response line: 3.8

Prompt line: Given `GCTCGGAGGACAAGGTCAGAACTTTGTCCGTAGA` , respond with its PBM binding z-score.
Response line: -0.824

Prompt line: Indicate its recorded PBM binding z-score; the sequence in question is `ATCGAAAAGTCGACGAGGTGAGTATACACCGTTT`
Response line: 0.0649

Prompt line: Report PBM binding z-score, nothing else, for this sequence: `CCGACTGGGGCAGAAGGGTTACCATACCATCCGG`
Response line: -0.531

Prompt line: Look up and report measured PBM binding z-score for this entry: `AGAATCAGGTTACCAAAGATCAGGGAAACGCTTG`
Response line: 0.88

Prompt line: Output PBM binding z-score of `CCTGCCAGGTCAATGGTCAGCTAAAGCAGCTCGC`
Response line: -0.936

Prompt line: Give me measured PBM binding z-score, please, for this sequence: `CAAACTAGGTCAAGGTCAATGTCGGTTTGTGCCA`
Response line: 5.91

Prompt line: Determine from records and report PBM binding z-score for `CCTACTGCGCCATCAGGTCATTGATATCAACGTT`
Response line: -0.701

Prompt line: Output PBM binding z-score of `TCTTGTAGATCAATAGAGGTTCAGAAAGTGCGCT`
Response line: 0.0591

Prompt line: Tell me its PBM binding z-score given `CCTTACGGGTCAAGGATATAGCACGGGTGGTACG` as the entry.
Response line: 0.42

Prompt line: Return PBM binding z-score (reported value) for this sequence: `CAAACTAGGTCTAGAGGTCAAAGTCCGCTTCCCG`
Response line: 0.248

Prompt line: For the sequence `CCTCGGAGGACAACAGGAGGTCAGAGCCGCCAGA` , give its measured PBM binding z-score value.
Response line: -1.41
